Some compounds, each annotated with its measured RP-LC retention time.
# assay_info: gradient 5% acetonitrile 3 min, to 50% in 2 min, to 85% in 15 min, held 3 min, 100 µL/min
# measurement_parameters: column: Zorbax Extend-C18 2.1 x 50 mm; eluents: water / acetonitrile, 0.1% formic acid
parameter_measured: RP-LC retention time (s)

INSERT INTO measurements (compound_string, reported_value) VALUES
  ('CC(C)N1CCN(C(=O)C2CCN(c3nc4ccc(-c5ccccc5)nc4s3)CC2)CC1', 696),
  ('CCOC(=O)c1c(C)[nH]c(C(=O)CC(=O)OC)c1C', 696),
  ('Cc1nc(C(=O)NCCc2ccc(Cl)cc2)c(C)n1C1CCN(S(C)(=O)=O)CC1', 689),
  ('Cc1ccc(C)c(N2CCN(C(=O)c3cn4ccc(C)cc4n3)CC2)c1', 759),
  ('FC(F)(F)c1cnc(N2CCN(Cc3ccccc3)CC2)c(Cl)c1', 717),
  ('Cc1noc(C)c1S(=O)(=O)N1CCC(c2nn(C)c(=O)n2C2CCCC2)CC1', 856);
